target-of-assay: Recombinant Human NF-kappaB-Inducing Kinase (NIK/MAP3K14) (Homo sapiens, UniProt Q99558)
Sequence (Q99558 whole entry): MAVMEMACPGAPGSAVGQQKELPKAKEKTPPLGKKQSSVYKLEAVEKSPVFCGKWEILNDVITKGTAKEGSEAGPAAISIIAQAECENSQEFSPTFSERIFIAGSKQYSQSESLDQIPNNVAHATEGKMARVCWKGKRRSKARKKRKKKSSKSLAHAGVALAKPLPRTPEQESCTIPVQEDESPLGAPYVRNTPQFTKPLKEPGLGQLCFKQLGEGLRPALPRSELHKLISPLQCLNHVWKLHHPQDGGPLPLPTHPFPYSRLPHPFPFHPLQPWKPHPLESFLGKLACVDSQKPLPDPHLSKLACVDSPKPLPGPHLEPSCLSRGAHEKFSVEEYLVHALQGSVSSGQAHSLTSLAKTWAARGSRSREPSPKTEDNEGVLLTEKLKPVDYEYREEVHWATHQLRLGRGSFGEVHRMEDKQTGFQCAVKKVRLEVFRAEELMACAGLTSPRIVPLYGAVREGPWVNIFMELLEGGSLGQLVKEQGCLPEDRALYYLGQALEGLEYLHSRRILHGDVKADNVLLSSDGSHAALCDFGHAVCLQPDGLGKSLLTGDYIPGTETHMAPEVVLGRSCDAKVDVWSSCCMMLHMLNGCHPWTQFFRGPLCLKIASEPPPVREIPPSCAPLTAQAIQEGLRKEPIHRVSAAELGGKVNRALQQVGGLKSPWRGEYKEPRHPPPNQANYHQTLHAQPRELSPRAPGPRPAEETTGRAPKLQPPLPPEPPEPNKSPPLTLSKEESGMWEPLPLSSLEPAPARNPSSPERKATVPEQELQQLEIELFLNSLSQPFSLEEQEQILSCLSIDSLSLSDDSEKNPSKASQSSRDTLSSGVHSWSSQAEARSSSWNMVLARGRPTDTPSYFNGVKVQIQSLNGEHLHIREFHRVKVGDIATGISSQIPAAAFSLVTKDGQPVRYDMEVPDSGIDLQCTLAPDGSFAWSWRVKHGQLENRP
procedure-details: Biological Assay A: inhibition of recombinant human NIK/MAP3K14 activity (MBP phosphorylation, Mesoscale)
Assay type: biochemical
stated-conditions: averaged over all measurements on all batches; read-out: Biochemical (MSD MBP) IC50
property-label: pIC50
Please treat pIC50 as minus the base-10 logarithm of the molar concentration.

Prompt: Test system Recombinant Human NF-kappaB-Inducing Kinase (NIK/MAP3K14) (Homo sapiens, UniProt Q99558); read-out pIC50; what value for `CC(C)(O)C#Cc1cc2c(-c3ccnc(N)n3)cn(C3COC3)c2cn1` ?
Completion: 7.82

Prompt: Any idea what pIC50 came out for `CC(C)(O)C#Cc1cc2c(-c3ccnc(N)n3)cn(CCN3CC(=O)NC3=O)c2cn1` on Recombinant Human NF-kappaB-Inducing Kinase (NIK/MAP3K14) (Homo sapiens, UniProt Q99558)?
Completion: 6.92

Prompt: State its pIC50 on Recombinant Human NF-kappaB-Inducing Kinase (NIK/MAP3K14) (Homo sapiens, UniProt Q99558): `CC(C)(O)C#Cc1cc2c(-c3nc(N)ncc3Cl)c[nH]c2cn1`
Completion: 9.05

Prompt: Short answer please: pIC50, Recombinant Human NF-kappaB-Inducing Kinase (NIK/MAP3K14) (Homo sapiens, UniProt Q99558), entry `CC(C)(O)C#Cc1cc2c(-c3nc(N)ncc3C(F)(F)F)cn(CC(C)(C)O)c2cn1`
Completion: 8.20

Prompt: Test system Recombinant Human NF-kappaB-Inducing Kinase (NIK/MAP3K14) (Homo sapiens, UniProt Q99558); read-out pIC50; what value for `CC(C)(O)C#Cc1cc2c(-c3ccnc(N)n3)cn(CCC#N)c2cn1` ?
Completion: 7.77

Prompt: Could you share what pIC50 was measured for `CC(C)(O)C#Cc1cc2c(-c3ccnc(N)n3)cn(CCCN)c2cn1` , tested on Recombinant Human NF-kappaB-Inducing Kinase (NIK/MAP3K14) (Homo sapiens, UniProt Q99558)?
Completion: 8.10

Prompt: Give Recombinant Human NF-kappaB-Inducing Kinase (NIK/MAP3K14) (Homo sapiens, UniProt Q99558) pIC50 for CN(C)C(=O)C(C)(O)C#Cc1cc2c(-c3ccnc(N)n3)cn(CC(C)(C)O)c2cn1 (stereo not drawn)
Completion: 6.22

Prompt: Record `CNc1nccc(-c2c[nH]c3cnc(C#CC(C)(C)O)cc23)n1` : what is its pIC50 with Recombinant Human NF-kappaB-Inducing Kinase (NIK/MAP3K14) (Homo sapiens, UniProt Q99558)?
Completion: 7.34

Prompt: Any idea what pIC50 came out for `Cn1cc(-c2ccnc(N)n2)c2cc(C#CC(C)(C)O)ncc21` on Recombinant Human NF-kappaB-Inducing Kinase (NIK/MAP3K14) (Homo sapiens, UniProt Q99558)?
Completion: 8.80

Prompt: Reported pIC50 for Recombinant Human NF-kappaB-Inducing Kinase (NIK/MAP3K14) (Homo sapiens, UniProt Q99558), given `COCCCn1cc(-c2ccnc(N)n2)c2cc(C#CC(C)(C)O)ncc21` ?
Completion: 7.60

Prompt: GET /values?readout=pIC50&system=Recombinant Human NF-kappaB-Inducing Kinase (NIK/MAP3K14) (Homo sapiens, UniProt Q99558)&item= COCCC(C)(O)C#Cc1cc2c(-c3ccnc(N)n3)cn(CC(C)(C)O)c2cn1 (stereo not drawn)
Completion: 6.03

Prompt: Item: `CC(C)(O)C#Cc1cc2c(-c3nc(N)ncc3Cl)cn(CC(C)(C)O)c2cn1` Test system: Recombinant Human NF-kappaB-Inducing Kinase (NIK/MAP3K14) (Homo sapiens, UniProt Q99558) Read-out: pIC50 Value: ?
Completion: 8.06

Prompt: What pIC50 appears in the records for this compound with Recombinant Human NF-kappaB-Inducing Kinase (NIK/MAP3K14) (Homo sapiens, UniProt Q99558)? `CC(C)(O)Cn1cc(-c2ccnc(N)n2)c2cc(C#CC3(O)CCC3)ncc21`
Completion: 8.24

Prompt: Find the measured pIC50: item `CC(C)(O)C#Cc1cc2c(-c3ccnc(N)n3)cn(CCC(C)(C)O)c2cn1` , target or system Recombinant Human NF-kappaB-Inducing Kinase (NIK/MAP3K14) (Homo sapiens, UniProt Q99558).
Completion: 7.32

Prompt: Write down the reported pIC50 of CC(C)(O)Cn1cc(-c2ccnc(N)n2)c2cc(C#CC3(O)CCOC3)ncc21 (stereo not drawn) , test system: Recombinant Human NF-kappaB-Inducing Kinase (NIK/MAP3K14) (Homo sapiens, UniProt Q99558).
Completion: 6.85

Prompt: Form field - read-out: pIC50; system: Recombinant Human NF-kappaB-Inducing Kinase (NIK/MAP3K14) (Homo sapiens, UniProt Q99558); submitted item: CC(C)(O)C#Cc1cc2c(-c3ccnc(N)n3)cn(CC3CCOC3)c2cn1 (stereo not drawn)
Completion: 8.64

Prompt: GET /values?readout=pIC50&system=Recombinant Human NF-kappaB-Inducing Kinase (NIK/MAP3K14) (Homo sapiens, UniProt Q99558)&item= CC(C)(O)Cn1cc(-c2ccnc(N)n2)c2cc(C#CC(C)(O)C(F)(F)F)ncc21 (stereo not drawn)
Completion: 6.66

Prompt: Hello, I am looking for reported pIC50 with Recombinant Human NF-kappaB-Inducing Kinase (NIK/MAP3K14) (Homo sapiens, UniProt Q99558) for CC(C)(O)Cn1cc(-c2ccnc(N)n2)c2cc(C#CC(C)(O)CC3CC3)ncc21 (stereo not drawn) . Could you help?
Completion: 7.35

Prompt: Short answer please: pIC50, Recombinant Human NF-kappaB-Inducing Kinase (NIK/MAP3K14) (Homo sapiens, UniProt Q99558), entry `CC(C)(O)C#Cc1cc2c(-c3nc(N)ncc3F)c[nH]c2cn1`
Completion: 8.41

Prompt: Enter reported pIC50 observed with Recombinant Human NF-kappaB-Inducing Kinase (NIK/MAP3K14) (Homo sapiens, UniProt Q99558) for `Nc1nccc(-c2c[nH]c3cnc(C#CC4(O)CC4)cc23)n1`
Completion: 8.96

Prompt: Param readout = pIC50; param system = Recombinant Human NF-kappaB-Inducing Kinase (NIK/MAP3K14) (Homo sapiens, UniProt Q99558); param query = `CC(C)(O)C#Cc1cc2c(-c3ccnc(N)n3)cn(CCN3CCOCC3)c2cn1` ; response: value
Completion: 7.82
